# Tested on: HOP-62 NSCLC
# assay: NCI tumour cell line growth inhibition, 48 h
Would you kindly list TGI for each of these compounds?

Q) Name the recorded TGI of the compound listed here: O=C(/C=C/N1CCN(c2cccc(C(F)(F)F)c2)CC1)c1ccc(Cl)cc1Cl
A) 35.4 µM

Q) Name the recorded TGI of the compound listed here: COc1ccc(Cn2nc(OCc3ccccn3)c3cc([N+](=O)[O-])ccc32)cc1
A) > 100 µM

Q) Name the recorded TGI of the compound listed here: CCCCc1ccc2[n+](c1)C(C(=O)OCC)=PC2 (stereo not given)
A) > 100 µM

Q) Name the recorded TGI of the compound listed here: Cc1cc(N(CCC#N)S(=O)(=O)c2ccccc2)ccc1C=O
A) > 100 µM

Q) Name the recorded TGI of the compound listed here: CC1=NN(c2nc(N)nc(/C(C#N)=C/c3ccncc3)n2)C(C)(C)C1
A) > 100 µM
